# target or test system: recombinant human ATX beta isoform with N-terminal purification tag (human, UniProt Q13822 49-863)
# protocol notes: SPR Biacore 3000, His-ATX beta captured on anti-Penta-His, mAb as analyte, bivalent analyte model
# Protocol: Affinity measurements using surface plasmon resonance (SPR) were performed using a Biacore 3000 optical biosensor (Biacore) for ATXB3, ATXB6, ATXB8, ATXB9, ATXB13, and ATXB14. […] Kd1 (Kₒₙ) was calculated as intrinsic KD with minimum avidity. […] The five mAbs with the lowest IC50 values in the inhibition assays as well as ATXB3, a non-neutralizing antibody, were tested for their affinity to the human ATX-beta isoform, as measured by surface plasmon resonance. […]
observed property: koff (s⁻¹)
Answer format: numeric, s⁻¹ implied, no suffix.

[[record]]
binder = "mAb ATXB9 (antibody, V domains shown, Human IgG1/kappa from Fab F89) VH: QVQLVQSGAEVKKPGSSVKVSCKASGGTFSSYAISWVRQAPGQGLEWMGGISPYFGNANYAQKFQGRVTITADESTSTAYMELSSLRSEDTAVYYCARYGDFGGNVFTEFDYWGQGTLVTVSS VL: EIVLTQSPGTLSLSPGERATLSCRASQSVNNSDLAWYQQKPGQAPRLLIYTASSRATGIPDRFSGSGSGTDFTLTISRLEPEDFAVYYCQQATTVPLTFGQGTKVEIK"
endpoint_result = 0.000322


koff measured on mAb ATXB3 (antibody, V domains shown, Human IgG1/kappa from Fab F17) VH: EVQLVQSGAEVKKPGESLKISCKGSGYSFTSYWIGWVRQMPGKGLEWMGIIYPGDSDTRYSPSFQGQVTISADKSISTAYLQWSSLKASDTAMYYCARPYGTFDYWGQGTLVTVSS VL: EIVLTQSPATLSLSPGERATLSCRASQSVADSLAWYQQKPGQAPRLLIYKASNRATGIPARFSGSGSGTDFTLTISSLEPEDFAVYYCQQSNGWPRTFGQGTKVEIK = 0.000303

koff measured on mAb ATXB13 (antibody, V domains shown, Human IgG1/kappa from Fab F143) VH: QVQLVQSGAEVKKPGSSVKVSCKASGGTFSSYAISWVRQAPGQGLEWMGGIIPIFGTANYAQKFQGRVTITADESTSTAYMELSSLRSEDTAVYYCARDFSVYGDFDYWGQGTLVTVSS VL: DIQMTQSPSSLSASVGDRVTITCRASQSIAKWLNWYQQKPGKAPKLLIYAASSLQSGVPSRFSGSGSGTDFTLTISSLQPEDFATYYCQQSYSTPLTFGQGTKVEIK = 0.000329

koff measured on mAb ATXB8 (antibody, V domains shown, Human IgG1/kappa from Fab F96) VH: QVQLVQSGAEVKKPGSSVKVSCKASGGTFSSYAISWVRQAPGQGLEWMGGIIPIFGTANYAQKFQGRVTITADESTSTAYMELSSLRSEDTAVYYCARDSSAYGDFDYWGQGTLVTVSS VL: DIQMTQSPSSLSASVGDRVTITCRASQSIDGWLNWYQQKPGKAPKLLIYAASSLQSGVPSRFSGSGSGTDFTLTISSLQPEDFATYYCQQSYSTPLTFGQGTKVEIK = 0.000883
